# System: Saccharomyces cerevisiae
# assay.info: protein stability index of tFT-peptide fusion (C-terminal peptide) (PSI (0-1 scale)); higher = more stable (slower turnover)
# run.parameters: genetic background: wild type; temperature: 30 C
# protein stability index annotations
Please reply with the number alone, leaving off any unit.

Example cases with answers are listed next.
sequence.text	protein stability index
CFFVSLFFYIDC	0.203
CPMFVKFFFCLY	0.41
FGALVVCFLTRC	0.302

Q: Could you tell me which protein stability index is on file for "DVLLVVVLGRFL" ?
Result: 0.312

Q: Could you tell me which protein stability index is on file for "YNKIRNNEKKMT" ?
Result: 0.27

Q: Could you tell me which protein stability index is on file for "FMRKLVVLVVLG" ?
Result: 0.206

====

# Test system: Saccharomyces cerevisiae
# assay.info: protein stability index of tFT-peptide fusion (C-terminal peptide) (PSI (0-1 scale)); higher = more stable (slower turnover)
# run.parameters: genetic background: wild type; temperature: 30 C
Assign class 1 whenever protein stability index does not fall below 0.7; assign class 0 whenever it does.

sequence.text	cat
RESPYSRSRCLL	class 1

Q: Reported protein stability index at or above 0.7? "KVLTTISRAINK"
Result: class 0

Q: Reported protein stability index at or above 0.7? "WSWCLDVVCFTS"
Result: class 0

Q: Reported protein stability index at or above 0.7? "FLCIFFFFLISF"
Result: class 0

Q: Reported protein stability index at or above 0.7? "LPQVYSGIMRFV"
Result: class 0

Q: Reported protein stability index at or above 0.7? "PPHTRTACHRAP"
Result: class 1

Q: Reported protein stability index at or above 0.7? "GSVTIDSMIHMR"
Result: class 0

Q: Reported protein stability index at or above 0.7? "PLCAFLFLSSPP"
Result: class 1

Q: Reported protein stability index at or above 0.7? "PPFPPPSPPHAL"
Result: class 1

Q: Reported protein stability index at or above 0.7? "APLTYFKPPTPT"
Result: class 0

====

# Test system: Saccharomyces cerevisiae
# assay.info: protein stability index of tFT-peptide fusion (C-terminal peptide) (PSI (0-1 scale)); higher = more stable (slower turnover)
# run.parameters: genetic background: cdc34-1; temperature: 37 C
measured.property: protein stability index
Please reply with the number alone, leaving off any unit.

sequence.text	system.name	protein stability index
VFLSCFFVSWVV	Saccharomyces cerevisiae	0.328
RGGVLYVSIRCK	Saccharomyces cerevisiae	0.282
VVPWLGYVSCFS	Saccharomyces cerevisiae	0.452

Q: Could you tell me which protein stability index is on file for "PLSPTNLSRLLS" ?
Result: 0.658

Q: Could you tell me which protein stability index is on file for "SVLVWFLVFLVW" ?
Result: 0.209

Q: Could you tell me which protein stability index is on file for "VECVCVVVVRRM" ?
Result: 0.391

Q: Could you tell me which protein stability index is on file for "RVFRLDRRLQVV" ?
Result: 0.55

Q: Could you tell me which protein stability index is on file for "FPGPPSPPPSYF" ?
Result: 0.699

Q: Could you tell me which protein stability index is on file for "FLCLLSLFFLDF" ?
Result: 0.532

Q: Could you tell me which protein stability index is on file for "YVVCFFFKLFYF" ?
Result: 0.271

====

# protein stability index annotations
# Tested on: Saccharomyces cerevisiae
# assay.info: protein stability index of tFT-peptide fusion (C-terminal peptide) (PSI (0-1 scale)); higher = more stable (slower turnover)
# run.parameters: genetic background: wild type; temperature: 30 C
Please reply with the number alone, leaving off any unit.

sequence.text	measured.number
GKRIIGMLHLDS [PUF4 C-terminal 12 aa]	0.699
SYEIVKNGHKNS [APC2 C-terminal 12 aa]	0.687
EWSSGIPHPEMI [ARA2 C-terminal 12 aa]	0.667
LVYENVRVPRYL [IFM1 C-terminal 12 aa]	0.664
AQFKEYLYQNDF [HAM1 C-terminal 12 aa]	0.697

Kindly review the next sequence as well.
Q: Could you tell me which protein stability index is on file for LCLLESLDCLAK [PMT7 C-terminal 12 aa] ?
Result: 0.68
